Data origin, for the record: PubChem BioAssay (NCI)

- System: MDA-MB-435
- Procedure Text: NCI tumour cell line growth inhibition, 48 h
Endpoint Label: TGI (µM)
Use µM as the unit, but write only the number.

COc1ccc2c(c1)N(CCO)C1=C(C(=O)OC1)C2c1cccc(F)c1 (stereo not given); 0.348
N#CC1(C(N)=O)C(c2ccc(Cl)cc2)CC(=O)CC1c1ccc(Cl)cc1 (stereo not given); 33.2
O=C1C(Cl)=C(Nc2ccc(S(=O)(=O)O)cc2)C(=O)c2ccccc21; 39.6
CC(C)C[C@H](NC(=O)CNC(=O)c1cc(Cl)ccc1Cl)B1OC(=O)CC(CC(=O)O)(C(=O)O)O1 (stereo not given in full); 0.0612

Prompt line: # get_value(readout='TGI', item= O=[N+]([O-])c1cccc2nnccc12 )
Response line: 32.5
